Target: T1, tail-chimeric peptide IhfA3-IhfB2NTHI (nontypeable Haemophilus influenzae …)
T1 construct: also called IHF(NTHI) tail chimeric peptide; IHFNTHI tail chimeric peptide
T1 peptide: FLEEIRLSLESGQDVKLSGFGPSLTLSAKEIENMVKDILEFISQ
Test: direct ELISA #1, peptide coated (curves not reaching equilibrium)
EC50 strictly under 0.01 µg/mL means true (1); at 0.01 µg/mL or over means false (0).

Lab log: compare recorded EC50 with 0.01 µg/mL; is it strictly lower for humanized anti-tail monoclonal antibody, heavy chain SEQ ID NO: 6 and light chain SEQ ID NO: 10 (antibody, V domains shown, also called H10215 (11E7.C7 Humanized HC3) + L10213 (11E7.C7 Humanized LC1)) VH: EVQLVESGGGLVQPGRSLRLSCTASGFTFSRYGMSWVRQAPGKGLEWVATISSGGSYTYYTDSVKGRFTISRDNAKNILYLQMNSLKTEDTAVYYCERHGGDGYWYFDVWGQGTMVTVSS VL: DIQMTQSPSSLSASVGDRVTITCRASQDISNYLNWYQQKPGKAVKLLIYYTSRLHSGVPSRFSGSGSGTDYTLTISSLQPEDFATYFCQQGNPLRTFGGGTKVEIKR ? false (0)

Lab log: compare recorded EC50 with 0.01 µg/mL; is it strictly lower for humanized anti-tail monoclonal antibody, heavy chain SEQ ID NO: 4 and light chain SEQ ID NO: 12 (antibody, V domains shown, also called H10213 (11E7.C7 Humanized HC1) + L10215 (11E7.C7 Humanized LC3)) VH: EVQLVESGGGLVKPGGSLRLSCAASGFTFSRYGMSWVRQAPGKGLEWVATISSGGSYTYYTDSVKGRFTISRDNAKNSLYLQMNSLRAEDTAVYYCERHGGDGYWYFDVWGQGTMVTVSS VL: DIVMTQSPATLSLSPGERATLSCRASQDISNYLNWYQQKPGQAVRLLIYYTSRLHSGIPARFSGSGSGTDYTLTISSLEPEDFAVYFCQQGNPLRTFGGGTKVEIKR ? false (0)

Lab log: compare recorded EC50 with 0.01 µg/mL; is it strictly lower for humanized anti-tail monoclonal antibody, heavy chain SEQ ID NO: 4 and light chain SEQ ID NO: 11 (antibody, V domains shown, also called H10213 (11E7.C7 Humanized HC1) + L10214 (11E7.C7 Humanized LC2)) VH: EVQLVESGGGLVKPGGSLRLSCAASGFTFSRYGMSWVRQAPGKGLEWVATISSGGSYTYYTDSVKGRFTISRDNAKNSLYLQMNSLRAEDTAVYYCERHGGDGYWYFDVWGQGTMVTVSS VL: DIQMTQSPSSLSASVGDRVTITCRASQDISNYLNWYQQKPGKAVKLLIYYTSRLHSGVPSRFSGSGSGTDYTLTISSLQPEDFATYYCQQGNPLRTFGGGTKVEIKR ? false (0)

Lab log: compare recorded EC50 with 0.01 µg/mL; is it strictly lower for humanized anti-tail monoclonal antibody, heavy chain SEQ ID NO: 6 and light chain SEQ ID NO: 12 (antibody, V domains shown, also called H10215 (11E7.C7 Humanized HC3) + L10215 (11E7.C7 Humanized LC3)) VH: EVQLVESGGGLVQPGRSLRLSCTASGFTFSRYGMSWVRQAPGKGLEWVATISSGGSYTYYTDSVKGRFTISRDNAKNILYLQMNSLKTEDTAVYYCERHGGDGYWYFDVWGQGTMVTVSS VL: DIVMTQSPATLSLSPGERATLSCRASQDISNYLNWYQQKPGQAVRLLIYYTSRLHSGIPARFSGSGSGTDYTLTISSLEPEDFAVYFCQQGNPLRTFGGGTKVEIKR ? true (1)

Lab log: compare recorded EC50 with 0.01 µg/mL; is it strictly lower for humanized anti-tail monoclonal antibody, heavy chain SEQ ID NO: 5 and light chain SEQ ID NO: 12 (antibody, V domains shown, also called H10214 (11E7.C7 Humanized HC2) + L10215 (11E7.C7 Humanized LC3)) VH: EVQLVESGGGLVKPGGSLRLSCAASGFTFSRYGMSWVRQAPGKGLEWVSTISSGGSYTYYTDSVKGRFTISRDNAKNSLYLQMNSLRAEDTAVYYCERHGGDGYWYFDVWGQGTMVTVSS VL: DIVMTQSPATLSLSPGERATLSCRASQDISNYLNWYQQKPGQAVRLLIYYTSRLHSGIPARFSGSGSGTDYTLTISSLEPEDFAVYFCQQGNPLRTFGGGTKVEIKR ? false (0)

Lab log: compare recorded EC50 with 0.01 µg/mL; is it strictly lower for humanized anti-tail monoclonal antibody, heavy chain SEQ ID NO: 6 and light chain SEQ ID NO: 11 (antibody, V domains shown, also called H10215 (11E7.C7 Humanized HC3) + L10214 (11E7.C7 Humanized LC2)) VH: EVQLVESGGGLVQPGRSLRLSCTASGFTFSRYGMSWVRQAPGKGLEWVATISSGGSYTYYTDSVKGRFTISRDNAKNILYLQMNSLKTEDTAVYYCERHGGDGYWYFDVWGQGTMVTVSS VL: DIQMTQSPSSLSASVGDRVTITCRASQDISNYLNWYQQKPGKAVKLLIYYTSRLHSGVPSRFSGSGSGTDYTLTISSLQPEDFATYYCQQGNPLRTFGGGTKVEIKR ? false (0)

Lab log: compare recorded EC50 with 0.01 µg/mL; is it strictly lower for humanized anti-tail monoclonal antibody, heavy chain SEQ ID NO: 5 and light chain SEQ ID NO: 10 (antibody, V domains shown, also called H10214 (11E7.C7 Humanized HC2) + L10213 (11E7.C7 Humanized LC1)) VH: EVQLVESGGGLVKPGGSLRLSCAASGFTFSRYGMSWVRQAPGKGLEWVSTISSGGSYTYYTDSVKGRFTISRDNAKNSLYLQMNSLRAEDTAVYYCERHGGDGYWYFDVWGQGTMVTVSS VL: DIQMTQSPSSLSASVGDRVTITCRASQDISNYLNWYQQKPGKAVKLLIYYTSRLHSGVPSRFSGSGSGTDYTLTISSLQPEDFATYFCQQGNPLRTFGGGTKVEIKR ? true (1)

Attribution: patent US20210206841A1
